Where these numbers come from: paper PMC12198407

# protocolDescription: Pharmacokinetics, intravenous
# Type: in vivo, SD rats
# testSettings: both sexes, SD, rat, plasma, iv, 3 mg/kg; read-out: AUC0-last
valueType: AUC(0-t) (ng·h/mL)
Answer in ng·h/mL, number only, no unit symbol.

Ask | // returns reported AUC(0-t) for input CN(Cc1nc2c(N3CCOCC3)nc(-c3ccc(N)cc3)nc2n1C)c1ncc(C(=O)NO)cn1.CS(=O)(=O)O
Reply | 248

###

# protocolDescription: Pharmacokinetics in plasma and tumor, HCT116 tumor-bearing mice
# Assay type: in vivo, nude mice
# testSettings: nude, mouse, tumor, iv, 10 mg/kg, single i.v. 10 mg/kg; read-out: Cmax in tumor
valueType: Cmax (µg/mL)
Answer in µg/mL, number only, no unit symbol.

Ask | // returns reported Cmax for input CN(Cc1nc2c(N3CCOCC3)nc(-c3ccc(N)cc3)nc2n1C)c1ncc(C(=O)NO)cn1.CS(=O)(=O)O
Reply | 1.04

###

# protocolDescription: Plasma protein binding, equilibrium dialysis
# Type: in vitro ADME
# testSettings: Sprague-Dawley, rat, 0.2 µM, read-out: plasma protein binding rate (converted)
valueType: fraction unbound at 0.2 µM
Give the figure by itself; no unit, no explanation.

Ask | // returns reported fraction unbound at 0.2 µM for input CN(Cc1nc2c(N3CCOCC3)nc(-c3ccc(N)cc3)nc2n1C)c1ncc(C(=O)NO)cn1.CS(=O)(=O)O
Reply | 0.057

###

# protocolDescription: Metabolic stability in liver microsomes
# Format: in vitro ADME
# testSettings: Beagle, dog, 1 µM, NADPH, 37°C
valueType: half-life at 1 µM (h)
Answer in h, number only, no unit symbol.

Ask | // returns reported half-life at 1 µM for input CN(Cc1nc2c(N3CCOCC3)nc(-c3ccc(N)cc3)nc2n1C)c1ncc(C(=O)NO)cn1.CS(=O)(=O)O
Reply | 1.63

###

# protocolDescription: Plasma protein binding, equilibrium dialysis
# Assay type: in vitro ADME
# testSettings: human, 10 µM, read-out: plasma protein binding rate (converted)
valueType: fraction unbound at 10 µM
Give the figure by itself; no unit, no explanation.

Ask | // returns reported fraction unbound at 10 µM for input CN(Cc1nc2c(N3CCOCC3)nc(-c3ccc(N)cc3)nc2n1C)c1ncc(C(=O)NO)cn1.CS(=O)(=O)O [PM]
Reply | 0.096

###

# protocolDescription: Pharmacokinetics and tissue distribution in Ighmyc mice
# Format: in vivo
# testSettings: Ighmyc (Eμ-myc), mouse, lymph nodes, iv; single i.v. 5 mg/kg; read-out: Cmax in lymph nodes
valueType: Cmax (ng/mL)
Answer in ng/mL, number only, no unit symbol.

Ask | // returns reported Cmax for input CN(Cc1nc2c(N3CCOCC3)nc(-c3ccc(N)cc3)nc2n1C)c1ncc(C(=O)NO)cn1.CS(=O)(=O)O
Reply | 578

###

# protocolDescription: Pharmacokinetics, intravenous
# Type: in vivo, Beagle dogs
# testSettings: both sexes, Beagle, dog, plasma, 0.3 mg/kg, read-out: T1/2 (converted)
valueType: half-life (h)
Answer in h, number only, no unit symbol.

Ask | // returns reported half-life for input CN(Cc1nc2c(N3CCOCC3)nc(-c3ccc(N)cc3)nc2n1C)c1ncc(C(=O)NO)cn1.CS(=O)(=O)O
Reply | 4.49

###

# protocolDescription: Pharmacokinetics and tissue distribution in Ighmyc mice
# Type: in vivo
# testSettings: Ighmyc (Eμ-myc), mouse, lymph nodes, iv; single i.v. 5 mg/kg; read-out: T1/2 in lymph nodes (converted)
# Text: In B cell-related tumors, the mechanism of disease often involves the translocation of the MYC oncogene to the immunoglobulin promoter region, leading to its hyperactivation. The translocation of the MYC gene to the IGH enhancer (t(8;14) (q24;q32)) is a molecular hallmark of Burkitt lymphoma. The Ighmyc (Eμ-myc) mouse model successfully mimics this pathogenic mechanism by translocating the MYC oncogene to the immunoglobulin μ enhancer. […]
valueType: half-life (h)
Answer in h, number only, no unit symbol.

Ask | // returns reported half-life for input CN(Cc1nc2c(N3CCOCC3)nc(-c3ccc(N)cc3)nc2n1C)c1ncc(C(=O)NO)cn1.CS(=O)(=O)O
Reply | 21.9
